B1: TRIB1 (parent)
chain: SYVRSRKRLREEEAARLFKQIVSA

Variants of: B1
Method Description: protein stability index of a GFP-peptide fusion (GPS, HEK-293T) (PSI 1-6); higher = more stable;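 also: lentivirally expressed fusions sorted by FACS into six bins by GFP to DsRed ratio, PSI derived from sequencing read proportions per bin multiplied by bin number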
Condition Set: c terminus: a fixed tail appended
protein stability index vs 2: at or above is yes, below is no.

> print(dat)
    mutation.annotation  class
 1                 K19L     no
 2                 A15P    yes
 3                  V3E     no
 4                  S5N    yes
 5                 A24I    yes
 6                  R4P     no
 7                 V22L    yes
 8                  R8I    yes
 9                 E12H    yes
10                 L17D    yes
11                 A14D     no
12                  L9W    yes
13                 R16M    yes
14                 L17S    yes
15                  S5D    yes
16                 A14W    yes
17                 V22Y     no
18                 A15C     no
19                 R10H    yes
20                 E13N    yes
